pIC50 values by entry
# study system: Epidermal Growth Factor Receptor Kinase (EGF-R) (Homo sapiens, UniProt P00533)
# Construct: containing the EGFR cDNA encoding amino acids 645 - 1186 preceded by Met-Ala-(His)6; Met-Ala-(His)6 (N)
# Sequence (P00533 669-1210): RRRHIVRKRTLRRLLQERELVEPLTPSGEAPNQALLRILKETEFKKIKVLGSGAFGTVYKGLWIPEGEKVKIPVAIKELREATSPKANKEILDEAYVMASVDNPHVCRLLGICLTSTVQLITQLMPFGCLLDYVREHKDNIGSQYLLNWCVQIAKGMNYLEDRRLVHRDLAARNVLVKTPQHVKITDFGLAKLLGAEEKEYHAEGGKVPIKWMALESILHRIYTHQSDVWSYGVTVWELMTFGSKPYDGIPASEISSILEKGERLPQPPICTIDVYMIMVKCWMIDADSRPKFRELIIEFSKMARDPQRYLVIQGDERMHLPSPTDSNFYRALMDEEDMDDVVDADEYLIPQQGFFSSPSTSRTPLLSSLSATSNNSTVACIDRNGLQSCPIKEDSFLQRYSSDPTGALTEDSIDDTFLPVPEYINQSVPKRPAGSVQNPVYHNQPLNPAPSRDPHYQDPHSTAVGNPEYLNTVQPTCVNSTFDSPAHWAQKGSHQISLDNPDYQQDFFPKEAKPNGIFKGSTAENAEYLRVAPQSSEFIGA
# run description: Inhibition of Epidermal Growth Factor Receptor Kinase (EGF-R) using recombinant enzyme
# details: recombinant enzyme
Please keep in mind that pIC50 is minus log10 of the molar concentration; only the number is needed.

Provide the documented pIC50 with Epidermal Growth Factor Receptor Kinase (EGF-R) (Homo sapiens, UniProt P00533) as the system for `N#Cc1cnc2cc3c(cc2c1Nc1ccc(F)c(Cl)c1)NCCO3`
6.00

Give pIC50 (Epidermal Growth Factor Receptor Kinase (EGF-R) (Homo sapiens, UniProt P00533)) of the following compound: `N#Cc1cnc2cc3c(cc2c1Nc1ccc(F)c(Cl)c1)N(CCCCCl)CCO3`
9.00

Consider the additional compound presented here.
Form entry - test system: Epidermal Growth Factor Receptor Kinase (EGF-R) (Homo sapiens, UniProt P00533); read-out: pIC50; compound: `CN(C)C/C=C/C(=O)N1CCOc2cc3ncc(C#N)c(Nc4ccc(F)c(Cl)c4)c3cc21`
6.77

---

# Test system: SW620
# run description: Inhibition of cancer cell growth as measured by cell number (Sulforhodamine B)
# Format: cell-based
# details: Homo sapiens, SW-620; 48 hours exposure
Parameter: IC50. Scope: all listed entries.

In the examples that follow, each entry is paired with its recorded IC50.
Any idea what IC50 was measured for CN(C)CCCC(=O)N1CCOc2cc3ncc(C#N)c(Nc4ccc(F)c(Cl)c4)c3cc21 [Example 10] ?
1.89 µg/mL

Which value of IC50 has been reported for CN(C)C/C=C/C(=O)N1CCOc2cc3ncc(C#N)c(Nc4ccc(F)c(Cl)c4)c3cc21 [Example 9] in the records?
0.165 µg/mL

I have this compound here, N#Cc1cnc2cc3c(cc2c1Nc1ccc(F)c(Cl)c1)NCCO3 [Example 7] , and I need its recorded IC50.
2.9 µg/mL

What does the data say about its IC50? Entry: CN(C)CCCCN1CCOc2cc3ncc(C#N)c(Nc4ccc(F)c(Cl)c4)c3cc21 [Example 12]
1.5 µg/mL

Kindly review the next compound as well.
Name the reported IC50 value associated with the compound N#Cc1cnc2cc3c(cc2c1Nc1ccc(F)c(Cl)c1)N(CCCCCl)CCO3 [Example 11]
> 5 µg/mL

Attribution: patent EP1268487B1
